SPOT intensity reference
- Measurement target: GST
- Assay details: SPOT array
- Stated conditions: median of control spots 978
In your answer, state the number alone without any accompanying words.

Here are 5 binders together with their reported answers.
Binder	Value kind	Reported result
IHTRRPSSTSQYLIR	SPOT intensity	0
HVRRSILALPLGVLL	SPOT intensity	0
VQKRKLPLPGSIASA	SPOT intensity	0
AAHKTKPSIPPKKVE	SPOT intensity	0
HHNRRKPLEVYFKAT	SPOT intensity	1

Enquiry: Provide measured SPOT intensity value, entry: QPWTDQFEKLEKEVS
Return: 0

Enquiry: Provide measured SPOT intensity value, entry: GDHPKGPPPPPPPDE
Return: 0

Enquiry: Provide measured SPOT intensity value, entry: PSTMDFPKLPSFQNS
Return: 0

Cited source: paper PMC2756588
